# target-system: His6-PDK1 (aa 52-556) (Homo sapiens)
# Construct: 15 μL His6-PDK1 (aa 52-556) 3.33 ng/well); host or cells: baculovirus-infected insect cells
# Sequence (O15530 52-556): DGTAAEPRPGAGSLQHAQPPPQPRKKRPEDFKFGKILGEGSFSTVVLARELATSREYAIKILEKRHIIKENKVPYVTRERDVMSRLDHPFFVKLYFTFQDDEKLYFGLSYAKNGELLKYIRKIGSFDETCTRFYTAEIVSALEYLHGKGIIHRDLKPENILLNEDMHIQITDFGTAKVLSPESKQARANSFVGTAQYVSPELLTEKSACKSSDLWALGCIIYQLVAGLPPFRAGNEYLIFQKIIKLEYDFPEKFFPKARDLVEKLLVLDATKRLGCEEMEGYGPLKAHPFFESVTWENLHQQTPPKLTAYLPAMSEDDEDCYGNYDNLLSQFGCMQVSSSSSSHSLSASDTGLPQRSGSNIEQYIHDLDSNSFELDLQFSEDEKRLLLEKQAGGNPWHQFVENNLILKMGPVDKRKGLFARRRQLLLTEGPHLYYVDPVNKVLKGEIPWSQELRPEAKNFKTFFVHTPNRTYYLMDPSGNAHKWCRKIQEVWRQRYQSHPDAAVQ
# assay-protocol: PDK1 kinase assay III (with Tween 20)
# Type: biochemical
# details: compound at 10 μM; PDK1 kinase assay III (values without asterisk); read-out: % CTL (residual activity of the enzyme relative to DMSO control)
endpoint-name: remaining activity at 10 µM (%)
A number alone suffices; assume %.

Exercise: Tell me its remaining activity at 10 µM given Cc1c(C(=O)NC/C=C/c2ccc3nc(Nc4ccc(C(=O)NC5CCN(C)CC5)c(Cl)c4)ncc3c2)c(=O)n(Cc2ccc(F)c(F)c2)n1C as the entry.
Solution: 14.4

Exercise: Given COc1cc(Nc2ncc3cc(/C=C/CNC(=O)c4c(C)n(C)n(Cc5ccc(F)c(F)c5)c4=O)ccc3n2)ccc1C(=O)NC1CCN(C)CC1 , respond with its remaining activity at 10 µM.
Solution: 10.2

Exercise: For the compound Cc1c(C#CCNC(=O)c2c(C)n(C)n(Cc3ccc(F)c(F)c3)c2=O)ccc2nc(Nc3ccccc3)ncc12 , give its measured remaining activity at 10 µM value.
Solution: 12.4

Exercise: For the compound CN1CCC(N(C)c2ccc(Nc3ncc4cc(/C=C/CNC(=O)c5ccnn(Cc6ccc(F)c(F)c6)c5=O)ccc4n3)cc2)CC1 , give its measured remaining activity at 10 µM value.
Solution: 17.2

Exercise: Identify measured remaining activity at 10 µM associated with Cc1c(C(=O)NCc2ccc(-c3cnc4[nH]ccc4c3)s2)c(=O)n(Cc2ccc(F)c(F)c2)n1C
Solution: 27.7

Exercise: Please list remaining activity at 10 µM recorded for the compound CN1CCC(NC(=O)c2ccc(Nc3ncc4cc(/C=C/CNC(=O)c5cncn(Cc6ccc(F)c(F)c6)c5=O)ccc4n3)cc2Cl)CC1
Solution: 22.4

Exercise: For Cc1c(/C=C/CNC(=O)c2cncn(Cc3ccc(F)c(F)c3)c2=O)c(=O)n(C(C)C)c2nc(Nc3ccc(N4CCOCC4)cc3)ncc12 , write its remaining activity at 10 µM.
Solution: 11.8
